Kindly state herbicidal effect ALOMY for each of the entries shown.
system: Alopecurus myosuroides; test: Herbicidal effect pre-emergence; format: in vivo; conditions: 320 g/ha, visual grading after ca. 3 weeks vs untreated controls

Tell me measured herbicidal effect ALOMY for Nc1nsc2c(=O)n(Cc3cc(F)c(F)cc3F)cc(F)c12 please.
100%

Tell me measured herbicidal effect ALOMY for O=C(Nc1nsc2c(=O)n(CC3CCCCC3)c(CO)cc12)C(F)(F)C(F)(F)F please.
80%

Tell me measured herbicidal effect ALOMY for O=C(Nc1nsc2c(=O)n(CC3CCCCC3Cl)cc(Cl)c12)C(F)(F)F (racemic) please.
100%

Tell me measured herbicidal effect ALOMY for O=C(Nc1nsc2c(=O)n(CC3CCCCC3)cc(F)c12)C(F)(F)C(F)(F)F please.
100%
